System: SARS-CoV-2 stock strain NL/2020
assay_comment: Protective effect against virus-induced cytopathic effect (crystal violet staining of Vero-E6 monolayer)
Assay type: cell-based
experimental_context: Severe acute respiratory syndrome coronavirus 2, Vero C1008, 72 h, Vero-E6, SARS-CoV-2 MOI 0.001, 72 h, 50 to 0.78 μM tested; read-out: PC MIN (lowest protective concentration)
assay_readout: minimal effective concentration
Include the unit right after the number.

Lookup: Field request: minimal effective concentration | item: CCN(CC)c1ccc(-c2ccc(NC(C#N)[C@H](Cc3c[nH]c4ccccc34)NC(=O)OC(C)(C)C)c(C(=O)OC)c2)cc1 (some centres unmarked) [(Ix)]
Found: 3.12 µM

Lookup: Field request: minimal effective concentration | item: COC(=O)c1c(Br)cccc1NC(C#N)[C@H](Cc1c[nH]c2ccccc12)NC(=O)OC(C)(C)C (some centres unmarked) [(Ik)]
Found: 1.56 µM

Lookup: Field request: minimal effective concentration | item: COC(=O)c1cc(-c2cccc(OC(F)(F)F)c2)ccc1NC(C#N)[C@H](Cc1c[nH]c2ccccc12)NC(=O)OC(C)(C)C (some centres unmarked) [(Iad)]
Found: 3.12 µM

Lookup: Field request: minimal effective concentration | item: COC(=O)c1ccccc1NC(C#N)[C@@H](Cc1c[nH]c2ccccc12)NC(=O)OC(C)(C)C (some centres unmarked) [(Iak)]
Found: 12.5 µM

Lookup: Field request: minimal effective concentration | item: CC(C)(C)OC(=O)N[C@@H](Cc1c[nH]c2ccccc12)C(C#N)Nc1ccccc1C(=O)NCc1ccccc1 (some centres unmarked) [(Iai)]
Found: 6.25 µM

Lookup: Field request: minimal effective concentration | item: CCc1ccc(-c2ccc(NC(C#N)[C@H](Cc3c[nH]c4ccccc34)NC(=O)OC(C)(C)C)c(C(=O)OC)c2)cc1 (some centres unmarked) [(Il)]
Found: 1.56 µM

Lookup: Field request: minimal effective concentration | item: CCc1cccc(-c2ccc(NC(C#N)[C@H](Cc3c[nH]c4ccccc34)NC(=O)OC(C)(C)C)c(C(=O)OC)c2)c1 (some centres unmarked) [(Iaa)]
Found: 3.12 µM

Lookup: Field request: minimal effective concentration | item: CC(C)(C)OC(=O)N[C@@H](Cc1c[nH]c2ccccc12)C(C#N)Nc1ccc(Cl)cc1C(=O)c1ccccc1 (some centres unmarked) [(Id)]
Found: 0.78 µM

Lookup: Field request: minimal effective concentration | item: CC(=O)c1ccccc1NC(C#N)[C@H](Cc1c[nH]c2ccccc12)NC(=O)OC(C)(C)C (some centres unmarked) [(Ial)]
Found: 12.5 µM

Lookup: Field request: minimal effective concentration | item: CCOc1ncc(-c2ccc(NC(C#N)[C@H](Cc3c[nH]c4ccccc34)NC(=O)OC(C)(C)C)c(C(=O)OC)c2)cn1 (some centres unmarked) [(Iaf)]
Found: 3.12 µM

Lookup: Field request: minimal effective concentration | item: COC(=O)c1cc(-c2ccc3c(c2)OCCO3)ccc1NC(C#N)[C@H](Cc1c[nH]c2ccccc12)NC(=O)OC(C)(C)C (some centres unmarked) [(If)]
Found: 0.78 µM

Lookup: Field request: minimal effective concentration | item: COC(=O)c1cc(-c2cccc(N(C)C)c2)ccc1NC(C#N)[C@H](Cc1c[nH]c2ccccc12)NC(=O)OC(C)(C)C (some centres unmarked) [(Iac)]
Found: 3.12 µM

Lookup: Field request: minimal effective concentration | item: CCCOc1ccc(-c2ccc(NC(C#N)[C@H](Cc3c[nH]c4ccccc34)NC(=O)OC(C)(C)C)c(C(=O)OC)c2)cc1 (some centres unmarked) [(Iy)]
Found: 3.12 µM

Lookup: Field request: minimal effective concentration | item: COC(=O)c1cc(-c2ccc(C(C)(C)C)cc2)ccc1NC(C#N)[C@H](Cc1c[nH]c2ccccc12)NC(=O)OC(C)(C)C (some centres unmarked) [(Ij)]
Found: 1.56 µM

Value source: patent US20250296914A1
